IC50 by entry:
# study.target: Calpain-2 catalytic subunit (Sus scrofa, UniProt P43367)
# Sequence (P43367 whole entry): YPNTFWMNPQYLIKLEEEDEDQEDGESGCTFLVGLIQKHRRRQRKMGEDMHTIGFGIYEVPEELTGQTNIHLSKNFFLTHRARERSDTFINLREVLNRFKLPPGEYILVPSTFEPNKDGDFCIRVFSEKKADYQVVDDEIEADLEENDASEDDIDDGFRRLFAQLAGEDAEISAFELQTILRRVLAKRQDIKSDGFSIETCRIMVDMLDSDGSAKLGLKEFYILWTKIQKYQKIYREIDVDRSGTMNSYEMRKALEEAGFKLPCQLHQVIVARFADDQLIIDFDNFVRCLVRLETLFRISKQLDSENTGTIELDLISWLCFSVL
# protocol: pig calpain II inhibitor potency, dose response, biochemical, fluorogenic peptide substrate (AID 1420)
# Assay type: functional

molecule	IC50
CCOC(=O)N1CCC2(CC1)C(C#N)=C(N)Oc1[nH]nc(CSc3ccc(C)cc3)c12	3.34 µM (not active)
C=C(C)CNC(=S)N/N=C/c1ccc(NC(C)=O)cc1	13.5 µM (not active)
Cc1ccc(N(C(=O)CCl)C(C(=O)NC2CCCCC2)c2cccnc2)cc1C (stereo unspecified)	34.7 µM (not active)
COc1cc(/C=N/NC(=O)COc2cccc(F)c2)ccc1OS(=O)(=O)c1ccc(C)cc1	2.21 µM (not active)
NC(=O)CC(NC(=O)Cc1ccc(Br)cc1)c1ccc(NCC2CC2)c([N+](=O)[O-])c1 (stereo unspecified)	14.6 µM (not active)
O=[N+]([O-])c1cc(Cl)c(O)c2ncccc12	> 50 µM (not active)
CCN(/N=C/C=C/c1ccccc1)c1cc(=O)n(C)c(=O)[nH]1	13.1 µM (not active)
SC1=NC[C@H](Cc2ccccc2)N1CCCCC1CCCCC1	7.52 µM (not active)
O=C(c1ccc(Cl)cc1)c1oc2ccccc2c1CS(=O)(=O)c1ccccc1	> 50 µM (not active)
CCc1ccccc1N(C(C)=O)c1nc(CN=C=S)cs1	14.5 µM (not active)
CC(C)C[C@H](NC(=O)c1[nH]cnc1C(=O)N[C@H](C)c1ccccc1)C(=O)OC(C)(C)C	11.7 µM (not active)

---

Notes on IC50 obtained with UniProtKB P04406.
Sequence (P04406 whole entry): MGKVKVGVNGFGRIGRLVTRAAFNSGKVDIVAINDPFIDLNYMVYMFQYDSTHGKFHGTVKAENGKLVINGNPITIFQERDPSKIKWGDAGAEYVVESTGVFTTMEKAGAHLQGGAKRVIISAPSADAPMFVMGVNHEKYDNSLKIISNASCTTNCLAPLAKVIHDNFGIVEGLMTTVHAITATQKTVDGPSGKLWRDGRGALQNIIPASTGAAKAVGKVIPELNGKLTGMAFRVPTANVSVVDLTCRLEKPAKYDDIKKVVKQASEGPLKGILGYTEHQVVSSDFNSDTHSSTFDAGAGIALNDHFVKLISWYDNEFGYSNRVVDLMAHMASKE
measured.parameter: IC50

item.smiles	observed.result
O=C(O)CN1C(=O)/C(=C\c2ccc(C(=O)O)cc2)SC1=S	> 100 µM (not active)
O=C(O)CN1C(=O)/C(=C\c2cccc([N+](=O)[O-])c2)SC1=S	> 100 µM (not active)
CCOc1ccc(C)cc1S(=O)(=O)Nc1cccnc1	> 10 µM (inconclusive)
O=C(O)c1ccc(-c2ccccc2Cl)o1	> 100 µM (not active)

---

# study.target: UniProtKB P42574
# Sequence (P42574 whole entry): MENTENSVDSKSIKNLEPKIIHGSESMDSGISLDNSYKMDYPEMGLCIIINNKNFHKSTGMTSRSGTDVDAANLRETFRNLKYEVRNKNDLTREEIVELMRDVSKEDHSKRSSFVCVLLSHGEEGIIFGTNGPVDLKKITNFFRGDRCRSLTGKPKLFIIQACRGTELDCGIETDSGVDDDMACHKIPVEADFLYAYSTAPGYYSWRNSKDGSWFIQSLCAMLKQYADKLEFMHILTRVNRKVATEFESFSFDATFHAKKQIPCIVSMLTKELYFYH
# Assay type: functional
The source made the active and inactive calls.
IC50 by entry:

item.smiles	IC50
CC(C)C(=O)Nc1ccc2nn(-c3ccc(F)cc3)nc2c1	8.48 µM (active)
Cc1cc(C(=O)N/N=C/C(Cl)=C/c2ccccc2)c(C)o1	18.2 µM (active)
COC(=O)c1ccc(NC(=O)Nc2ccc(F)c(Cl)c2)cc1	48 µM (active)
NC(=O)c1ccccc1NC(=O)/C=C/c1c(Cl)cccc1Cl	21.5 µM (active)
CCn1c(O)c(N=Nc2ccc3ccccc3n2)c2ccccc21	2.1 µM (active)

---

# study.target: Acyl-homoserine lactone acylase PvdQ (Pseudomonas aeruginosa (strain LESB58), UniProt Q9I194)
# Sequence (Q9I194 whole entry): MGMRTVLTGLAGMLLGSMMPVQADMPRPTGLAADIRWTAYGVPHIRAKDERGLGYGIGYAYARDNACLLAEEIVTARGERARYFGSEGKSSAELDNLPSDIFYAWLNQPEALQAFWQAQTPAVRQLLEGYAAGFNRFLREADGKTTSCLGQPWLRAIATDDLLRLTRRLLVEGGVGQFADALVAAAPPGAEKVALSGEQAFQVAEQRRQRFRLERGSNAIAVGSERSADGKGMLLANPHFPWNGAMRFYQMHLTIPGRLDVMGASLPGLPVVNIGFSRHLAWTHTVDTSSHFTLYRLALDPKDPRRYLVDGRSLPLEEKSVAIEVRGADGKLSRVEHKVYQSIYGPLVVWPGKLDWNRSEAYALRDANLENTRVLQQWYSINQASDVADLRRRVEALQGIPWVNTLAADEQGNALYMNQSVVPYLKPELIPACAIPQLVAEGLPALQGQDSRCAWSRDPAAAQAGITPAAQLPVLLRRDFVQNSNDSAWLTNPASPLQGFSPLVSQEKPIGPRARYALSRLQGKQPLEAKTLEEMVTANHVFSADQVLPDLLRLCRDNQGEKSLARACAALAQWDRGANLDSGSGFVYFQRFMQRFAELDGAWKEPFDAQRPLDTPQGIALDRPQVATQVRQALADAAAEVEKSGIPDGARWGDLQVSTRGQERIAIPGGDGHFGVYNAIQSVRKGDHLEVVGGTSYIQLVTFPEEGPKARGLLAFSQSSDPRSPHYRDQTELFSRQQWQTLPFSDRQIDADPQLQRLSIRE
# protocol: P. aeruginosa PvdQ acylase inhibitors, dose response, biochemical, fluorescence, plate reader and imaging, cherry-picks (AID 493231)
Active and inactive are the calls of the source.
AC50 by entry:
measured.parameter: AC50

compound	measured.parameter	observed.result
O=[N+]([O-])c1ccc(N2CCCCC2)nc1	AC50	3.98 µM (active)
O=C(NC1CC1)c1cc2cc3ccccc3nc2s1	AC50	45.7 µM (active)
CCOc1ccc(CNC2CCCc3ccccc32)cc1 (centres undefined)	AC50	12.3 µM (active)
CCOc1ccc(NC(=O)c2cnsn2)cc1	AC50	81 µM (active)

---

IC50 by entry:
# study.target: Rac GTPase-activating protein 1 (Homo sapiens, UniProt Q9H0H5)
# Sequence (Q9H0H5 whole entry): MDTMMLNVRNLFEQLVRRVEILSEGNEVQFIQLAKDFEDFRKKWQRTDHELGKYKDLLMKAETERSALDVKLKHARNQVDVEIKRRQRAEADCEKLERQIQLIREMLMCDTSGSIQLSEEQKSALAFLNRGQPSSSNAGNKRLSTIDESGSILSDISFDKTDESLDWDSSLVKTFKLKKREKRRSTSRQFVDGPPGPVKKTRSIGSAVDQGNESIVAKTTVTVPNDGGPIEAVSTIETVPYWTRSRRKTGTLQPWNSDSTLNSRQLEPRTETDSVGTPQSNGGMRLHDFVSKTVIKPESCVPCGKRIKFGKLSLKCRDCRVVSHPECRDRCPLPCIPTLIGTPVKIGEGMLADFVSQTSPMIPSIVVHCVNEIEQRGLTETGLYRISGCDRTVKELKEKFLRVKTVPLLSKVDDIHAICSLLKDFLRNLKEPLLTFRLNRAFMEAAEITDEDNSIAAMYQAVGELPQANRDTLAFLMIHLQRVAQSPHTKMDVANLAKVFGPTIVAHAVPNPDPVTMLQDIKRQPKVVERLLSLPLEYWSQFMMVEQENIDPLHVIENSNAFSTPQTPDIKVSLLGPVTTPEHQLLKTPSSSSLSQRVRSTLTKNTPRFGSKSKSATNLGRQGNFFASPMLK
# protocol: MgcRacGAP GTPase-activating activity inhibitors, confirmation, biochemical, ADP Hunter fluorescence, primary and confirmatory (AID 624330)
# Assay type: functional
Activity calls are given as the source filed them.

molecule	IC50
C/C(=C\C(=O)c1ccccc1)Nc1ccc(O)cc1	20.2 µM (active)
COc1ccc(CCNCCN2CCOCC2)cc1	77.1 µM (active)
C=CC[n+]1c(/C=C/c2ccc(OC(C)=O)c(OC)c2)ccc2ccccc21	61.2 µM (active)
CC1=C(C)C[S+]([O-])N(S(=O)(=O)c2ccc(Cl)cc2)C1 (configuration not stated)	71.9 µM (active)
Cn1cnc2cc(NCc3ccccc3O)ccc21	93.9 µM (active)
Oc1ccc(Br)cc1/C=N/c1ccc2[nH]ncc2c1	32.1 µM (active)
COc1cc2cc(-c3ccc(O)cc3O)nc(C)c2cc1OC	29.9 µM (active)
O=C(Nc1cc(Br)c(O)c(Br)c1)c1cccc(NC(=O)c2ccco2)c1	95.2 µM (active)
COc1ccc(/C=N/Nc2ccccn2)cc1O	70.2 µM (active)
O=C1NN(c2ccc(Br)cc2)C(=O)/C1=C\c1ccc(O)cc1O	159 µM (active)
COc1ccc(NC(=O)c2cc3ccc(O)cc3o/c2=N\O)cc1	42 µM (active)
O=c1c2sc3ccccc3c2[nH]c(=S)n1CCN1CCOCC1	91.3 µM (active)
CCOc1ccc(CNC2CCCc3ccccc32)cc1 (configuration not stated)	202 µM (active)
ON=C1c2ccccc2-c2ccc(O)cc21	23.6 µM (active)
CCOCCCNC(=O)/C(C#N)=C/c1ccc([N+](=O)[O-])o1	149 µM (active)
CCOc1ccccc1CN1CCC(N2CCOCC2)CC1	83 µM (active)
CN(C)c1ccc(-n2cccc2/C=C/[N+](=O)[O-])cc1	43.2 µM (active)

---

# study.target: Zinc finger protein mex-5 (Caenorhabditis elegans, UniProt Q9XUB2)
# Sequence (Q9XUB2 whole entry): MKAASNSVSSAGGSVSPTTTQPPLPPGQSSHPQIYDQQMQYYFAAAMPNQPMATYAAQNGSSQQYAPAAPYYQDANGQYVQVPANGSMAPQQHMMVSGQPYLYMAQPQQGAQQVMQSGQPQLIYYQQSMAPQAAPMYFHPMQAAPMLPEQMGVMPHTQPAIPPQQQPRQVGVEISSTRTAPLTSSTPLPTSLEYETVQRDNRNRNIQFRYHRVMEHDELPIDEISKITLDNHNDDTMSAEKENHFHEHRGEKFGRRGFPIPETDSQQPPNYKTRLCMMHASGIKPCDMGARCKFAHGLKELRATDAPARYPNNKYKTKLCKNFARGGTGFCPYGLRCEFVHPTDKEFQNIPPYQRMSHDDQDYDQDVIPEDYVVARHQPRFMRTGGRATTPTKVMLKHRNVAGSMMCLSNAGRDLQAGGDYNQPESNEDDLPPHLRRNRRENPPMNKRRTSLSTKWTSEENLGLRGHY
# protocol: MEX-5/TCR-2 RNA interaction inhibitors, dose response, biochemical, C. elegans, fluorescence polarization (AID 1960)
Active and inactive are the calls of the source.
EC50 by entry:

item.smiles	EC50
Cc1ccc(NC(=O)CN2C(=O)S/C(=C\c3cc(C)n(-c4cccc(C(=O)O)c4)c3C)C2=O)cc1	> 300 µM (not active)
COC(=O)[C@H](CCSC)NC(=O)NC1CCN(Cc2ccccc2)CC1	> 300 µM (not active)
COc1cc(/C=C2\CCc3c2nc2ccccc2c3C(=O)O)cc(OC)c1OC	34.8 µM (active)
Cc1[nH]c2ccccc2c1/C=N/NC(=S)NC(C)C	> 300 µM (not active)
CN1c2ccc(C=O)c3c(C=O)ccc(c23)N(C)C1(C)C	5.37 µM (inconclusive)
